- method: NCI Yeast Anticancer Drug Screen. Data for the bub3 strain (AID 167)
- condition: S. cerevisiae bub3 mutant strain, at 1.2 µM
- Description: Growth inhibition of yeast strains with defined genetic alterations is measured as a screen for potential anti-cancer activity. Selected strains with alterations in DNA damage repair or cell cycle control were exposed to compounds and growth inhibition was measured relative to vehicle treated controls. The strain used in this assay is bub3
About 79,000 compounds went through this panel and 15% of them were active in at least one assay; those are over-represented in the sample as a whole. The source made the active and inactive calls. Rule as the data show it: active = growth inhibition above about 70%; inactive = the rest.
Write down one outcome, taken from 1 for active, 0 for inactive

Cc1ccccc1N=Cc1cc(Cl)ccc1O = 0
Cc1nc(Nc2ccccc2[N+](=O)[O-])sc1C(=O)CC(=O)C(=O)Nc1c(C(C)C)cccc1C(C)C = 0
CCOC(=O)c1[nH]cc(C)c1-c1cccn1-c1ccc(Cl)cc1[N+](=O)[O-] = 0
O=C(COC(=O)c1ccccc1)c1ccc(Br)cc1 = 0
Cc1c(C(C)C)cc(OCCO)cc1C(C)C = 0

Shift focus to the following entry.
[in] Fill in: this test's call for O=C(O)CNC(=S)Nc1ccccc1 is ___
[out] 0

---

- method: NCI Yeast Anticancer Drug Screen. Data for the cln2 rad14 strain (AID 165);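 also: 0% = growth equal to vehicle treated cultures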
- condition: S. cerevisiae cln2 rad14 strain, at 50.0 µM, active compounds read high
The panel holds about 79,000 compounds, 15% with a hit somewhere; the sample as a whole holds those more often. Activity calls are given as the source filed them. Rule as the data show it: active = growth inhibition above about 70%; inactive = the rest.
Assign growth inhibition to each entry below.

Recorded growth inhibition, per entry:
O=C(Nc1ccc(Cl)cc1)Nc1nnc2nc(C(C(=O)c3cccc([N+](=O)[O-])c3Cl)c3nc4nnc(NC(=O)Nc5ccc(Cl)cc5)n4[nH]c3=O)c(=O)[nH]n12 = 99.2% (active)
COc1cccc2c1C(=O)c1c(O)c3c(c(O)c1C2=O)C[C@@](O)(C(C)=O)C[C@@H]3OC1CC(OC(C)=O)C(OC(C)=O)C(C)O1 (some centres undefined) = 17.3% (inactive)
CCO/C(C)=C(/C#N)C(N)=S = 85.3% (active)
CN(C)/C=C/c1nnc([N+](=O)[O-])s1 = 28.6% (inactive)
CCc1c(Cl)c(C)cc(O)c1Cl = 77.2% (active)
O=[N+]([O-])c1ccc2c(c1)/C(=N/N=C1c3ccccc3Cc3ccccc31)c1cc([N+](=O)[O-])cc([N+](=O)[O-])c1-2 = 85.8% (active)

Kindly give each listed record's growth inhibition.
1. O=C1C(Br)=C(c2ccccc2)O/C1=C/C(=O)c1ccc(Br)cc1
2. C=C(Cl)COC(=O)Nc1cccc(Cl)c1
3. Cc1c2cccc(Sc3ccccc3)c2c2c3c(cccc13)[S+](c1ccccc1)C2 (centres undefined)
4. Cc1ccc(Cl)cc1NC(=O)OCCN(C)C(=O)Nc1cc(Cl)ccc1C
5. COc1cc(CSc2ccc(O)cc2)cc(O)c1O
6. CC(=O)OCC(C)Cc1cc2c(cc1Br)OCO2 (centres undefined)
7. COc1oc(C(=O)NC2CCCCC2)c(-c2ccc(Cl)cc2)c1S(=O)(=O)c1ccccc1
8. COc1ccc(C2C3=C(COC3=O)OC(C)(C)Oc3cc4c(cc32)OCO4)cc1OC (centres undefined)

[out]
1. 29.7% (inactive)
2. 25.1% (inactive)
3. 93.4% (active)
4. 85.1% (active)
5. 36% (inactive)
6. 4.65% (inactive)
7. 76.9% (active)
8. 91.6% (active)

Required: growth inhibition, one value per molecule below.
1. C=C(C(=C)n1nnc(C(=O)OC)c1C(=O)OC)n1nnc(C(=O)OC)c1C(=O)OC
2. Cc1nc(-c2cc3cc([N+](=O)[O-])ccc3oc2=O)cs1
3. CCOC1Oc2ccccc2-c2nc(N)ncc21 (centres undefined)
4. Cc1csc(=S)n1OC(=O)NC1CCCCC1

[out]
53.2% (inactive)
59.4% (inactive)
-20.9% (inactive)
92.2% (active)

For each of the molecules below, state growth inhibition.
1. O=[N+]([O-])c1cc(S(=O)(=O)Nc2ccccc2)ccc1Nc1ccccc1
2. O=C(/C=C(/c1ccccc1)N1CCCCC1)c1ccccc1
3. C[C](C)(C)[Ge]([O][Ge]([c]1ccccc1)[c]1ccccc1)([O][Ge]([c]1ccccc1)[c]1ccccc1)[C](C)(C)C
4. CC(=O)Nc1ccc(/C=C/[N+](=O)[O-])cc1
5. CCC(C)NC1=NCC(C)S1 (centres undefined)
6. CC(C)CCCC(C)C1CCC2C3CCC4=CC(=O)/C(=C\O)CC4(C)C3CCC12C (centres undefined)

[out]
80.2% (active)
46% (inactive)
67.8% (inactive)
46.2% (inactive)
65.7% (inactive)
48.5% (inactive)

// batch mode: one growth inhibition value per listed entry
1. CC(C)=NOC(=O)Nc1ccc(Cl)cc1
2. COc1cc2cc3c4cc(OC)c(OC)cc4cc[n+]3c(C)c2cc1OC
3. CCN(CC)CCOc1cc(C)c2cc(Cc3ccccc3)ccc2n1
4. CCOC(=O)c1[nH]n(-c2ccccc2)c(=O)c1C=NC(=S)C(N)=S
5. CN(C)c1ccc(C2CC(C)(O)Oc3cc4c(cc32)OCO4)cc1 (centres undefined)
6. CCOC(=N)c1ccc(O)c(OC)c1
7. Oc1ccc(-c2nc(-c3ccc(F)cc3)c(-c3ccc4ccccc4n3)[nH]2)cc1

[out]
["37.2% (inactive)", "15.2% (inactive)", "53.9% (inactive)", "90.4% (active)", "21.3% (inactive)", "-39.2% (inactive)", "90.6% (active)"]

Hi, could you look up growth inhibition for each item in my list?
1. Cc1cc(C(C)(C)CC(C)(C)C)ccc1O
2. COC(=O)Nc1cn2ccc(C(Cl)=C(Cl)Cl)cc2n1
3. CN(CCN(C)Cc1ccccc1)Cc1ccccc1

[out]
92.8% (active)
-5.65% (inactive)
31.1% (inactive)
